Entry source: the supplement of paper PMC9170038

# System: MS2 coat protein
# Measurement Description: apparent KD of MS2 coat protein; designed switch direction (-1 OFF switch, 1 ON switch): 1; higher = weaker reporter binding
# Cond: input ligand: FMN 200 uM
Record form. Attribute: apparent KD of MS2 coat protein. Fill in for each entry.
# number only, unit nM dropped from output

Write down apparent KD of MS2 coat protein measured for item GUUACAUGAGGAUCACCCAUGUAUGUGUGGGAGUAAGUGUCUUAGGAUAUCUAGUAUUUAAUUUUAGAGAAGGAAGAUUGUUGU [JMF's solution 69] (Eterna round: R96, puzzle: Same State NG 3)
128

Write down apparent KD of MS2 coat protein measured for item GGAAUAUGAUGUUACAUGAGGAUCACCCAUGUAGUGAUAACUAAGGAUAUCUGUUAAGAUAAUUAAGAGAAGGUAGGAUCAUAA [AK SSNG3-V2-8.2] (Eterna round: R96, puzzle: Same State NG 3)
34.7

Write down apparent KD of MS2 coat protein measured for item GUCCGUACCACAGGAUAUCCUAGUCAUGAUCUAGGAGAAGGGUGGCCACAUGAGGAUCACCCAUGUGAAGUGCCAGAGGCACGA [MOD Xexeraed] (Eterna round: R96, puzzle: Same State NG 1)
35.2

Write down apparent KD of MS2 coat protein measured for item ACAUGAGGAUCACCCAUGUAACACCUGAAAAUAAAACGAACACAGGAUAUCCCGGCAAGACACCGGGAGAAGGGUGAUCGAAGA [Eresorbe] (Eterna round: R96, puzzle: Same State NG 3)
411

Write down apparent KD of MS2 coat protein measured for item GCGAGCGUACUUGCUACAUGAGGAUCACCCAUGUUUUAUGGACAGGAUAUGGUACCGUUUCGGUACCAGAAGGGUUCACAUGUA [JL SSNG3 3.83] (Eterna round: R96, puzzle: Same State NG 3)
116

====

# System: MS2 coat protein
# Measurement Description: apparent KD of MS2 coat protein; designed switch direction (-1 OFF switch, 1 ON switch): 1; higher = weaker reporter binding
# Cond: input ligand: microRNA oligo, concentration not stated
Parameter: apparent KD of MS2 coat protein (nM)
# number only, unit nM dropped from output

Write down apparent KD of MS2 coat protein measured for item ACAUGAGAAUGAGGAUAUGUUGUACCUACAUGUGACAUGAGGAUCACCCAUGUGGUAAGUAUGAUACAGAAGGCAUAGAUAUGU [Equivalance 62 - Jieux - Same State NG 2] (Eterna round: R96, puzzle: Same State NG 2)
18

Write down apparent KD of MS2 coat protein measured for item GCGGUACCUAACAUGAGGAUCACCCAUGUUCCGGAAACGGCACAGGAUAUCUGUCCGAAAAGGUCAGAGAAGGGUGAAAACCGC [Fiskers NG3ss - 94] (Eterna round: R96, puzzle: Same State NG 3)
396

Write down apparent KD of MS2 coat protein measured for item GCUCGAUGAAUGUCCUACAUGAGGAUCACCCAUGUACGUGGGCAGGAUAUUUACAUGCAGAGUGUAGAGAAGGGCCCAUCGAGC [SameState NG3 #62] (Eterna round: R96, puzzle: Same State NG 3)
28.6

Write down apparent KD of MS2 coat protein measured for item CCAACGUACAAUUUAGAUCUACAUGAGGAUCACCCAUGUACGGAGGAUAUCAGCUCGUUUAGAGCUGAGAAGGCCGAAUUAAUU [SSNG3/2-A3] (Eterna round: R96, puzzle: Same State NG 3)
238
